// IC50 lookup, one value per entry
test system: wild-type A375 human malignant melanoma cells; assay: Cell experiment: anti-proliferative activity, CellTiter-Glo, A375; type: cell-based; conditions: 5 days culture
A number alone suffices; assume µM.

See these solved cases before continuing.
| Compound | Observation type | Observed measurement |
| --- | --- | --- |
| C=CC(=O)N1CCN(c2ncnc3c(=O)n(-c4c(N)c(Cl)cc(Cl)c4F)c(C(F)(F)F)cc23)[C@@H](C)C1 [Example 54] | IC50 | 6.66 |
| C=CC(=O)N1CCN(c2ncnc3c(=O)n(-c4c(N)c(Cl)cc(Cl)c4F)c(C(F)(F)F)cc23)[C@H](C)C1 [Example 52] | IC50 | 7.39 |

Now for another entry.
Input C=CC(=O)N1CCN(c2nc(N3CC(N(CC)CC)C3)nc3c(=O)n(-c4c(N)c(Cl)cc(Cl)c4F)c(C(F)(F)F)cc23)CC1 (atropisomer, axis not shown) [Example 45] . Output IC50: 6.24

* * *

// half-life lookup, one value per entry
assay: Liver microsome stability test, rat; format: in vitro ADME; conditions: rat liver microsomes, 0.5 mg protein/mL; read-out: rat T1/2

See these solved cases before continuing.
| Compound | Observed measurement |
| --- | --- |
| C=CC(=O)N1CCN(c2ncnc3c(=O)n(-c4c(O)cccc4F)c(C(F)(F)F)cc23)CC1 | > 2.42 h |
| C=CC(=O)N1CCN(c2nc(N3CC(N(CC)CC)C3)nc3c(=O)n(-c4c(O)cccc4F)c(C(F)(F)F)cc23)CC1 | 0.772 h |
| C=CC(=O)N1CCN(c2nc(N3CC(N(CC)CC)C3)nc3c(=O)n(-c4c(N)cccc4F)c(C(F)(F)F)cc23)CC1 (single isomer, unassigned) | > 2.42 h |

Now for another entry.
Input C=CC(=O)N1CCN(c2nc(N3CC(N(CC)CC)C3)nc3c(=O)n(-c4c(C)ccc(N)c4C)c(C(F)(F)F)cc23)CC1 . Output half-life: > 2.42 h

* * *

assay: Rat pharmacokinetic evaluation experiment; type: in vivo; details: plasma, male SD rats, IV 3 mg/kg, read-out: T1/2 (half-life) (converted)
// half-life lookup, one value per entry
A number alone suffices; assume min.

| Compound | Readout unit | half-life |
| --- | --- | --- |
| C=CC(=O)N1CCN(c2ncnc3c(F)c(-c4c(O)cccc4F)c(Cl)cc23)CC1 [ARS-1620, reference compound] | min | 27.7 |

Now for another entry.
Input C=CC(=O)N1CCN(c2ncnc3c(=O)n(-c4c(N)c(Cl)cc(Cl)c4F)c(C(F)(F)F)cc23)CC1 [Example 49] . Output half-life: 56.4

* * *

// AUC lookup, one value per entry
experiment: Rat pharmacokinetic evaluation experiment; type: in vivo; conditions: plasma, male SD rats, PO 10 mg/kg, read-out: AUC (exposure)
A number alone suffices; assume µM·h.

| Molecule | AUC, µM·h |
| --- | --- |
| C=CC(=O)N1CCN(c2ncnc3c(=O)n(-c4c(N)c(Cl)cc(Cl)c4F)c(C(F)(F)F)cc23)CC1 | 7.74 |

Now for another entry.
Input C=CC(=O)N1CCN(c2ncnc3c(F)c(-c4c(O)cccc4F)c(Cl)cc23)CC1 [ARS-1620, reference compound] . Output AUC: 2.32

* * *

Experiment: Liver microsome stability test, mouse
Type: in vitro ADME
Settings: mouse liver microsomes, 0.5 mg protein/mL; read-out: mouse T1/2
Method: To test the metabolic stability of the test article in mice, rats and human liver microsomes. 1. 10 μL of the test or control article working solution was added to all plates (T0, T5, T10, T20, T30, T60, NCF60). 2. […] T1/2 and Clint(mic) were calculated by the following formula. […]
Observation type: half-life

| Compound | Observation type | Observed measurement |
| --- | --- | --- |
| C=CC(=O)N1CCN(c2nc(N3CC(N(CC)CC)C3)nc3c(=O)n(-c4c(O)cccc4F)c(C(F)(F)F)cc23)CC1 [Example 9] | half-life | > 2.42 h |
| C=CC(=O)N1CCN(c2ncnc3c(=O)n(-c4c(O)cccc4F)c(C(F)(F)F)cc23)CC1 [Example 2] | half-life | > 2.42 h |
| C=CC(=O)N1CCN(c2nc(N3CC(N(CC)CC)C3)nc3c(=O)n(-c4c(N)cccc4F)c(C(F)(F)F)cc23)CC1 (single isomer, unassigned) [Example 32] | half-life | > 2.42 h |

Now for another entry.
Input C=CC(=O)N1CCN(c2nc(N3CC(N(CC)CC)C3)nc3c(=O)n(-c4c(C)ccc(N)c4C)c(C(F)(F)F)cc23)CC1 [Example 36] . Output half-life: > 2.42 h

* * *

// bioavailability lookup, one value per entry
assay: Rat pharmacokinetic evaluation experiment; type: in vivo; settings: plasma, male SD rats, PO 10 mg/kg, read-out: F (bioavailability)
A number alone suffices; assume %.

| Compound | Observed measurement |
| --- | --- |
| C=CC(=O)N1CCN(c2ncnc3c(=O)n(-c4c(N)c(Cl)cc(Cl)c4F)c(C(F)(F)F)cc23)CC1 | 52 |

Now for another entry.
Input C=CC(=O)N1CCN(c2ncnc3c(F)c(-c4c(O)cccc4F)c(Cl)cc23)CC1 [ARS-1620, reference compound] . Output bioavailability: 22

* * *

test: Rat pharmacokinetic evaluation experiment; assay type: in vivo; details: plasma, male SD rats, PO 10 mg/kg
// Cmax lookup, one value per entry
A number alone suffices; assume nM.

| Compound | Readout unit | Observed measurement |
| --- | --- | --- |
| C=CC(=O)N1CCN(c2ncnc3c(F)c(-c4c(O)cccc4F)c(Cl)cc23)CC1 [ARS-1620, reference compound] | nM | 1240 |

Now for another entry.
Input C=CC(=O)N1CCN(c2ncnc3c(=O)n(-c4c(N)c(Cl)cc(Cl)c4F)c(C(F)(F)F)cc23)CC1 . Output Cmax: 2110

* * *

Assay: Rat pharmacokinetic evaluation experiment
Format: in vivo
Conditions: plasma, male SD rats, IV 3 mg/kg, read-out: Cl (clearance rate)
Description: To determine the drug concentrations in plasma at different times after intravenous and intragastric administration of the test compounds to the rats by using the LC/MS/MS method and using male SD rats as the test animals; To study the pharmacokinetic behaviors of the test compounds in rats and to evaluate the pharmacokinetic characteristics thereof. […]
Observation type: clearance (mL/min/kg)
A number alone suffices; assume mL/min/kg.

| Compound | clearance / mL/min/kg |
| --- | --- |
| C=CC(=O)N1CCN(c2ncnc3c(F)c(-c4c(O)cccc4F)c(Cl)cc23)CC1 [ARS-1620, reference compound] | 36.3 |

Now for another entry.
Input C=CC(=O)N1CCN(c2ncnc3c(=O)n(-c4c(N)c(Cl)cc(Cl)c4F)c(C(F)(F)F)cc23)CC1 . Output clearance: 20.6

* * *

// Vd lookup, one value per entry
test: Rat pharmacokinetic evaluation experiment; assay type: in vivo; conditions: plasma, male SD rats, IV 3 mg/kg, read-out: Vd (volume of distribution)
A number alone suffices; assume L/kg.

| Compound | Observation type | Observed measurement |
| --- | --- | --- |
| C=CC(=O)N1CCN(c2ncnc3c(=O)n(-c4c(N)c(Cl)cc(Cl)c4F)c(C(F)(F)F)cc23)CC1 | Vd | 2.15 |

Now for another entry.
Input C=CC(=O)N1CCN(c2ncnc3c(F)c(-c4c(O)cccc4F)c(Cl)cc23)CC1 [ARS-1620, reference compound] . Output Vd: 1.08
